src = ChEMBL document CHEMBL1155317

Each entry below lists one item and its recorded Vdu value.
Tested on: Rattus norvegicus
procedure_details: Unbound volume of distribution in rat at 1 mg/kg, iv and 1 mg/kg, po
Format: ADME, organism-based
condition_parameters: in vivo

{"smiles_structure": "CNC(=O)c1cc(OC)c(O[C@@H](C)C(=O)N2CCN(C(=O)c3ccccc3)C[C@H]2C)cn1", "units_of_measure": "L/kg", "Vdu": 2.2}
{"smiles_structure": "CNC(=O)c1nccc2c(O[C@@H](C)C(=O)N3CCN(C(=O)c4ccccc4)C[C@H]3C)cccc12", "units_of_measure": "L/kg", "Vdu": 3.5}
{"smiles_structure": "CNc1ccc2c(O[C@@H](C)C(=O)N3CCN(C(=O)c4ccccc4)C[C@H]3C)cccc2n1", "units_of_measure": "L/kg", "Vdu": 10.5}
{"smiles_structure": "CNC(=O)c1cc(OC)c(O[C@@H](C)C(=O)N2CCN(c3nccc4ccccc34)C[C@H]2C)cn1", "units_of_measure": "L/kg", "Vdu": 9.4}
